- Tested target: D-serine-sensitive Na+-independent transporter in rat cortical membranes (Rattus norvegicus, UniProt P63116)
- Construct: from tissue; host or cells: rat cerebral cortex membranes (P2 synaptosomes), male Wistar rats
- Sequence (P63116 1-530): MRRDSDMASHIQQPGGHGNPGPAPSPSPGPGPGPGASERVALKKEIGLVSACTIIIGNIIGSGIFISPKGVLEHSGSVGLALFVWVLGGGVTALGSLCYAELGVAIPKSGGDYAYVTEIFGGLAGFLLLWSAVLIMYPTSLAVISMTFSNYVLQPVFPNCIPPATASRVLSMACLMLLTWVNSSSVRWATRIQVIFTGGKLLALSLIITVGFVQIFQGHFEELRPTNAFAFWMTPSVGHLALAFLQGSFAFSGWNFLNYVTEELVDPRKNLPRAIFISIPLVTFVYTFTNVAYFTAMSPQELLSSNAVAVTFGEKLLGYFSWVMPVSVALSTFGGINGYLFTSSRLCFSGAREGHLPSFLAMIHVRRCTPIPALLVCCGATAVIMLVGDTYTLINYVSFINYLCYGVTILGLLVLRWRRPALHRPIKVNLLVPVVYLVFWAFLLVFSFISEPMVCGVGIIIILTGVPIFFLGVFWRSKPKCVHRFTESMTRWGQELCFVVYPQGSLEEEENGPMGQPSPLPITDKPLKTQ
- Sequence (Q794F9 1-527 partner): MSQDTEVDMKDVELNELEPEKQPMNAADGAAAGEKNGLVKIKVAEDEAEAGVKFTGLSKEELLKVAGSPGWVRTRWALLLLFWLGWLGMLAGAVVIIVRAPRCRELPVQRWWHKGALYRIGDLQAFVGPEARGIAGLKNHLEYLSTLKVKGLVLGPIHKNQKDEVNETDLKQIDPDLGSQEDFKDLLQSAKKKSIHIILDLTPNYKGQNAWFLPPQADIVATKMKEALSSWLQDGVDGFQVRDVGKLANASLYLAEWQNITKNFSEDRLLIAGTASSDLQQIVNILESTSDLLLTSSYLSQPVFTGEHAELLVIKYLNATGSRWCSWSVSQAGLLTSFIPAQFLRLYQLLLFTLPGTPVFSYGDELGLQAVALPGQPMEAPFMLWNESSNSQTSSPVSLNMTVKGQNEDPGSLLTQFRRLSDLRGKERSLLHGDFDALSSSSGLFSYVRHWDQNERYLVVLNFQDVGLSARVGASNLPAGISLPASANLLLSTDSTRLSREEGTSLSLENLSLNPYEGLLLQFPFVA
- Protocol details: Na+-independent [3H]D-serine uptake into rat cortical membranes (synaptosomes)
- Assay type: biochemical
- Run conditions: rat cortical synaptosomes
Measurement label: inhibition of [3H]D-serine uptake (in words)

> print(dat)
                                molecule           assay.value
1                 NC(=O)CC[C@H](N)C(=O)O              Inactive
2                               NCC(=O)O  effective inhibition
3  N[C@@H](CCC(=O)O)C(=O)O [L-glutamate]              Inactive
4                        C[C@H](N)C(=O)O  effective inhibition
5   N[C@@H](CC(=O)O)C(=O)O [L-aspartate]              Inactive
6               C[C@@H](O)[C@H](N)C(=O)O  effective inhibition

Prompt line: So what's the measured inhibition of [3H]D-serine uptake (in words) for this one? NCCCC[C@H](N)C(=O)O
Response line: Inactive

Prompt line: So what's the measured inhibition of [3H]D-serine uptake (in words) for this one? O=C(O)[C@@H]1CCCN1
Response line: Inactive

Prompt line: So what's the measured inhibition of [3H]D-serine uptake (in words) for this one? N[C@@H](CO)C(=O)O
Response line: effective inhibition
